- Test system: Streptococcus pyogens (ATCC8668)
- assay protocol: Microtitre plate assay, IC90 determination (SPY 8668)
- Type: cell-based
- condition parameters: 90% inhibitory concentration for bacterial growth, 37° C., 24 hours, resazurin fluorescence

[
  {
    "compound": "COc1nc2ccc(Br)cc2cc1C(c1ccccc1)C(O)(CCc1ccc(F)cc1)CCN(C)C (stereo not drawn) [Compound 26]",
    "assayed target": "Streptococcus pyogens (ATCC8668)",
    "IC90 SPY 8668, µg/mL": 1.7
  },
  {
    "compound": "COc1nc2ccc(Br)cc2cc1C(c1ccccc1)C(O)(CCc1ccc(C)cc1)CCN(C)C (racemic) [Compound 52]",
    "assayed target": "Streptococcus pyogens (ATCC8668)",
    "IC90 SPY 8668, µg/mL": 1.7
  },
  {
    "compound": "COc1nc2ccc(C)cc2cc1C(c1ccccc1)C(O)(CCc1ccccc1)CCN(C)C (stereo not drawn) [Compound 2]",
    "assayed target": "Streptococcus pyogens (ATCC8668)",
    "IC90 SPY 8668, µg/mL": 37.2
  }
]

The measurements presented in this section are drawn from patent US20130030017A1.
